Exercise: for every item that follows, state its recorded photoluminescence quantum yield.
- protocolDetails: photoluminescence quantum yield (fraction); solvent given as SMILES
- conditionInfo: in CCCCCC
Just the number, please.

photoluminescence quantum yield recorded for this compound, COC(=O)c1ccc(C#Cc2ccccc2)cc1 , is 0.42

// recorded photoluminescence quantum yield for CCc1c(C(=O)OC)c(C(=O)OC)c2ccc(-c3ccccc3)nn12 : 0.543

// field: photoluminescence quantum yield; key: Fc1ccc(-c2cc3ccc4cc(-c5ccc(F)cc5)cc5ccc(c2)c3c45)cc1 ; value = 0.02

Consider C[Si](C)(C)c1ccc2ccc3cccc4ccc1c2c34 . Its measured photoluminescence quantum yield is 0.23

CCOC(=O)COc1ccc(/C=C/c2cc(C)c3n2[B-](F)(F)[N+]2=C(c4[nH]c(C)cc4C)c4ccccc4C2=C3)cc1 has a reported photoluminescence quantum yield of 0.73

Reported photoluminescence quantum yield of N#Cc1ccc(C#Cc2ccc3ccc4ccc(C#Cc5ccc(C#N)cc5)c5ccc2c3c45)cc1 : 0.8

Reported photoluminescence quantum yield for O=Cc1cc(C=O)c2ccc3c(N4CCCCC4)cc(N4CCCCC4)c4ccc1c2c43 was 0.93

The value of photoluminescence quantum yield measured for the compound CCC(=O)c1ccc2cc(N(C)C)ccc2c1 turned out to be 0.02

For reference, reported photoluminescence quantum yield for CCCCCCCCN1c2ccc(C#Cc3ccc(OC)cc3)cc2Sc2cc(C=O)ccc21 stands at 0.59

---

- protocolDetails: photoluminescence quantum yield (fraction); solvent given as SMILES
- conditionInfo: in CO
Answer each item with its documented photoluminescence quantum yield.
Output: the number by itself.

The value of photoluminescence quantum yield measured for the molecule C(=C\c1nc2ccccc2[nH]1)/c1ccc(/C=C/c2nc3ccccc3[nH]2)cc1 turned out to be 0.738

Documented photoluminescence quantum yield of COC(=O)c1ccc(C#Cc2ccccc2)cc1 : 0.305

Form field photoluminescence quantum yield, entry O=C(O)c1ccc2ccc3cccc4ccc1c2c34 : 0.097

COc1nc(Nc2ccc3c4c(cccc24)C(=O)c2ccccc2-3)nc(OC)n1 has a reported photoluminescence quantum yield of 0.3

In plain terms, COc1nc(Cl)nc(Nc2ccc3c4c(cccc24)C(=O)c2ccccc2-3)n1 has a documented photoluminescence quantum yield of 0.33

Please fill in: photoluminescence quantum yield reported for CCC1=C(C)C2=Cc3cc(I)cn3[B-](F)(F)[N+]2=C1C = 0.069

// C/C(=N\Nc1ccc(C#N)cc1)c1cccc(/C(C)=N/Nc2ccc(C#N)cc2)c1 : photoluminescence quantum yield value = 0.14

Entry CN1/C(=C/C=C(/C=C/c2sc3ccccc3[n+]2C)c2cccc(C(F)(F)F)c2)Sc2ccccc21 ; photoluminescence quantum yield = 0.06

Field photoluminescence quantum yield (entry C#CCNC1=C2C=CC=[N+]2[B-](F)(F)n2cccc21 ) reads 0.52

The reported photoluminescence quantum yield of the molecule CN(C)c1ccc(C#Cc2ccc(C=O)cc2)cc1 was 0.006

What the record says about F[B-]1(F)n2c(-c3ccccc3)cnc2-c2cccc[n+]21 : photoluminescence quantum yield is 0.17

---

- protocolDetails: photoluminescence quantum yield (fraction); solvent given as SMILES
- conditionInfo: in CC(C)O
measurementType: photoluminescence quantum yield

get_value(item= COCCOCCOc1cc(C=O)c(OCCOCCOC)cc1C=O , readout=photoluminescence quantum yield) returns 0.08

Please fill in: photoluminescence quantum yield reported for CN(C)c1ccc(/C=C2\CC/C(=C\c3ccc(N(C)C)cc3)C2=O)cc1 = 0.18

photoluminescence quantum yield for O=C1/C(=C/C=C/c2cc3c4c(c2)CCCN4CCC3)CC/C1=C\C=C\c1cc2c3c(c1)CCCN3CCC2 is 0.07

The compound COC(=O)c1ccc(C#Cc2ccccc2)cc1 showed photoluminescence quantum yield equal to 0.398

For reference, reported photoluminescence quantum yield for O=c1oc2ccccc2cc1-c1nc2ccccc2o1 stands at 0.76

Record CCCCN1c2ccccc2Sc2cc(/C=C/c3nc4nc5ccccc5nc4s3)ccc21 . Reported photoluminescence quantum yield: 0

Lookup result for CN(C)c1ccc(C#Cc2ccc(C=O)cc2)cc1 ; measured photoluminescence quantum yield: 0.017

---

- protocolDetails: photoluminescence quantum yield (fraction); solvent given as SMILES
- conditionInfo: in CO
Label TRUE when photoluminescence quantum yield is strictly below 0.04; at or above that, label FALSE.

API: query returns whether the compound falls strictly under 0.04 in photoluminescence quantum yield. Query: C(/C=C/c1ccc(N(c2ccccc2)c2ccccc2)cc1)=C\c1ccncc1
TRUE

Input Cc1cc(C)c(C2=C3C=C(/C=C/C(=O)OC(C)(C)C)C=[N+]3[B-](F)(F)n3c2ccc3N2CCOCC2)c(C)c1 ; condition: photoluminescence quantum yield strictly below 0.04. Does it hold?
FALSE

Is it true that photoluminescence quantum yield reported for C(=C\c1cnc2ccccc2n1)/c1cnccn1 is less than 0.04?
TRUE

For COc1ccc(-c2nc(-c3ccc(OC)cc3)c(-c3ccc(OC)cc3)[nH]2)cc1 , is the recorded photoluminescence quantum yield below the cut-off of 0.04?
FALSE

Lab log: compare recorded photoluminescence quantum yield with 0.04; is it strictly lower for CCC1=C(C)C2=C(C)c3cc(I)cn3[B-](F)(F)[N+]2=C1C ?
FALSE

Consider CCNc1cc2c(cc1C)C(c1ccccc1C(=O)O)=C1CCCC(/C=C/C3=[N+](C)c4ccccc4C3(C)C)=C1O2 . Does its photoluminescence quantum yield lie strictly below 0.04?
FALSE

Is it true that photoluminescence quantum yield reported for O=P1(c2ccccc2)C(c2cc(C(F)(F)F)cc(C(F)(F)F)c2)=Cc2c3ccc4cccc5ccc(c6cc(-c7ccccc7)n1c26)c3c45 (stereo not given) is less than 0.04?
FALSE

Input Cc1cc(C)n2c1C=C1c3ccccc3C(c3cccn3C)=[N+]1[B-]2(F)F ; condition: photoluminescence quantum yield strictly below 0.04. Does it hold?
FALSE

Regarding C1=Cc2ccccc2Cc2ccccc21 , kindly confirm whether its photoluminescence quantum yield is beneath 0.04.
TRUE

Below 0.04 on photoluminescence quantum yield? Entry CCN(CC)c1ccc2c(C#N)c(/C=C(\C#N)c3nc4ccccc4o3)c(=O)oc2c1
TRUE

Find out if reported photoluminescence quantum yield for Oc1ccc2ncccc2c1 is less than 0.04
FALSE

Take the compound N#Cc1c(-n2nnc3ccc(Cl)cc32)n([C@H]2C[C@H](O)[C@@H](CO)O2)c2ncnc(N)c12 and say whether its photoluminescence quantum yield is less than 0.04.
TRUE

Regarding CC1=[N+]2C(=C(c3c4ccccc4cc4ccccc34)c3ccc(C)n3[B-]2(F)F)C=C1 , kindly confirm whether its photoluminescence quantum yield is beneath 0.04.
TRUE

Confirm or reject: photoluminescence quantum yield of CCN(CC)c1ccc2c(-c3ccccc3C(=O)[O-])c3ccc(=[N+](CC)CC)cc-3oc2c1 lies strictly below 0.04
FALSE

Say whether its photoluminescence quantum yield is strictly beneath 0.04. Entry: CC(C)(C)c1ccc(-c2cc3c(-c4ccc(C(C)(C)C)cc4)c4cccc5c(-c6ccc(C(C)(C)C)cc6)cc6c(-c7ccc(C(C)(C)C)cc7)c7cccc2c7c3c6c54)cc1
FALSE

In the record for CC1=CC(/C=C/c2ccc(OCCCN=[N+]=[N-])cc2)=[N+]2C1=C(c1ccc(N3CCCCC3)cc1)c1c(C)cc(C)n1[B-]2(F)F , is photoluminescence quantum yield less than 0.04?
FALSE

Determine if Nc1ccc2c(c1)Cc1ccccc1-2 shows photoluminescence quantum yield strictly lower than 0.04.
FALSE

Record CN(C)c1ccc2nc(-c3ccc(C(=O)OC[C@H](NC(=O)OC(C)(C)C)C(=O)OCc4ccccc4)cc3)sc2c1 : is its photoluminescence quantum yield strictly below 0.04?
FALSE

Please determine if CCC1=C(C)C2=Cc3cc(I)c(I)n3[B-](F)(F)[N+]2=C1C is below 0.04 in terms of photoluminescence quantum yield.
FALSE

Does this compound meet the criterion photoluminescence quantum yield < 0.04? CC1=CC(C)=[N+]2C1=C(c1ccc(N3CCOCC3)cc1)c1c(C)cc(C)n1[B-]2(F)F
TRUE

Below 0.04 on photoluminescence quantum yield? Entry COC(=O)c1cc(=O)n(C)c2cc(-c3ccc(OC)cc3)sc12
FALSE

Would you kindly verify if photoluminescence quantum yield of Nc1ccc2c3cccc4cccc(c5cccc1c52)c43 is strictly less than 0.04?
FALSE

hey, is photoluminescence quantum yield for COc1ccc(C(=O)NN2C3=C(CC4=C2CCCC4=O)C(=O)CCC3)cc1 lower than 0.04 or not?
FALSE

Is 0.04 strictly greater than the compound's reported photoluminescence quantum yield? compound: COc1ccc(/C=C(\c2ccccc2)c2nc3ccccc3s2)cc1
TRUE

Is the reported photoluminescence quantum yield for CCN(CC)c1ccc(/C=N/Nc2ccc(C#N)cc2)c(O)c1 strictly below 0.04?
FALSE

Just wondering, is photoluminescence quantum yield of COc1ccc(-c2nc3ccccc3nc2/C=C/N2CCCC2)s1 below 0.04?
TRUE

Hello, I'm reviewing records and need to know if photoluminescence quantum yield of CN(C)c1nc(N)c2nc(C#N)n(Cc3ccccc3)c2n1 is below 0.04. Could you check?
FALSE

# TODO verify photoluminescence quantum yield < 0.04 strictly for this compound: CC1(C)CC(/N=C/c2ccc3ccc4cccc5ccc2c3c45)CC(C)(C)N1[O]
TRUE

Please determine if COCCOCCOCCOCCOc1ccc(OCCOCCOCCOCCOC)c(C=O)c1 is below 0.04 in terms of photoluminescence quantum yield.
FALSE

API: query returns whether the compound falls strictly under 0.04 in photoluminescence quantum yield. Query: CCc1c(C)[nH]c(C2=[N+]3C(=C(C)c4c(C)c(CC)c(C)n4[B-]3(F)F)c3ccccc32)c1C
FALSE

Report whether reported photoluminescence quantum yield is lower than 0.04 (strictly) for CCN(CC)c1ccc2c(c1)oc(=O)c1cc3c(-c4ccccc4)nn(-c4ccccc4)c3nc12
TRUE

Does CC(C)(C)c1ccc(-c2cc3c4c(c2)CCc2cc(-c5ccc(C(C)(C)C)cc5)cc(c2-4)CC3)cc1 have photoluminescence quantum yield strictly under 0.04?
FALSE

Input C[N+]1=C(/C=C/C2=C3Oc4c(cc5c6c4CCCN6CCC5)C(c4ccccc4C(=O)O)=C3CCC2)C(C)(C)c2c1ccc1ccccc21 ; condition: photoluminescence quantum yield strictly below 0.04. Does it hold?
FALSE

Please state whether photoluminescence quantum yield is below 0.04 for CCCCN1c2ccccc2Sc2cc(/C=C/c3nc4nc5ccccc5nc4s3)ccc21
TRUE
